- Test Method Notes: Half life in rat
- Format: ADME, organism-based
- Applied Conditions: in vivo
Quantity Name: half-life (h)
Note: unit h is implicit; provide only the numeric part.

According to the records, this compound C[C@@H]1C(=O)O[C@H]2C[C@@]34[C@H]5C[C@@H](C(C)(C)C)[C@]36[C@@H](OC(=O)[C@@H]6O)O[C@@]4(C(=O)O5)[C@]21O [GINKGOLIDE A] displays half-life of 1.5

Values from ChEMBL document CHEMBL1147232
